- testDescription: Fraction unbound in rat brain at 10 mg/kg, po
- Type: ADME, organism-based
readoutType: fraction unbound
Give bare numbers.

Q: Give the reported fraction unbound for this compound. CCN/C(=N\S(=O)(=O)c1ccc(N)cc1)N1CC2(C=N1)CCCC2
Result: 0.31

* * *

- testDescription: Binding affinity to Muscarinic receptor (unknown origin)
- Design: species or system Homo sapiens
pKi: −log10 of the molar value.
readoutType: pKi

Q: Give the reported pKi for this compound. CCN/C(=N\S(=O)(=O)c1ccc(N)cc1)N1CC2(C=N1)CCCC2
Result: < 6.00

* * *

Consider the following compounds; for each one, report its permeability.
- Tested on: LLC-PK1
- assayConditions: pig, llc-pk1, 3 h; at 1 µg/mL
- Description: Permeability across pig LLC-PK1 cells expressing MDR assessed as membrane passage at 1 ug/ml after 3 hrs by LC/MS analysis
Give bare numbers, in %.

The cases that follow already have their permeability on record.
> print(dat)
                                   compound  quantityunit  recordedmeasurement
1  CCN/C(=N\S(=O)(=O)c1ccc2cc[nH]c2c1)N1CC(CC)C=N1 (stereo not drawn)             %                 37.7
2  CCN/C(=N\S(=O)(=O)c1ccc(O)c(Cl)c1)N1CC2(C=N1)CCCC2             %                 20.5
3  CCN/C(=N\S(=O)(=O)c1cccc(N)c1)N1CC2(C=N1)CCCC2             %                 35.7
4  CCN/C(=N\S(=O)(=O)c1cccc(Cl)c1)N1N=CCC1c1ccc(O)cc1 (stereo not drawn)             %                 34.9
5  CCN/C(=N\S(=O)(=O)c1cccc(O)c1)N1CC2(C=N1)CCCC2             %                 40.7

Consider the following items and state reported permeability for each.
1. CCN/C(=N\S(=O)(=O)c1ccccc1)N1CC(CC)C=N1 (stereo not drawn)
2. CCN/C(=N\S(=O)(=O)c1cccc(Cl)c1)N1CC(C)(C)C=N1
3. CCN/C(=N\S(=O)(=O)c1ccc(N)cc1)N1CC2(C=N1)CCCC2
4. CCN/C(=N\S(=O)(=O)c1cccc(OC)c1)N1CC2(C=N1)CCCC2
5. CCN/C(=N\S(=O)(=O)c1ccc(N)c(Cl)c1)N1CC2(C=N1)CCCC2

Result:
1: 38.2; 2: 41; 3: 35.1; 4: 35.2; 5: 38.1

Consider the following items and state reported permeability for each.
1. CCN/C(=N\S(=O)(=O)c1ccc(N(C)C)cc1)N1CC(CC)C=N1 (stereo not drawn)
2. CCN/C(=N\S(=O)(=O)c1ccc(N)cc1)N1CC2(C=N1)CCCCC2

Result:
38.2
36.5

Consider the following items and state reported permeability for each.
1. CCN/C(=N\S(=O)(=O)c1cccc(Cl)c1)N1N=CCC1c1ccc(N)cc1 (stereo not drawn)
2. CCN/C(=N\S(=O)(=O)c1ccc2c(c1)CCN2)N1CC2(C=N1)CCCC2
3. CCN/C(=N\S(=O)(=O)c1ccc(N)c(Cl)c1)N1CC(CC)C=N1 (stereo not drawn)
4. CCN/C(=N\S(=O)(=O)c1ccc(O)cc1)N1CC2(C=N1)CCCC2

Result:
36.2
36.5
38.5
32

Consider the following items and state reported permeability for each.
1. CCN/C(=N\S(=O)(=O)c1ccc(N)cc1)N1CC(C)(C)C=N1
2. CCN/C(=N\S(=O)(=O)c1ccc(OC)c(Cl)c1)N1CC2(C=N1)CCCC2
3. CCN/C(=N\S(=O)(=O)c1ccc2c(c1)NCC2)N1CC(CC)C=N1 (stereo not drawn)

Result:
[31.6, 39.4, 36.5]
